meta.source: ChEMBL document CHEMBL5608182

# experimentalProtocol: Drug concentration in Sprague-Dawley rat brain at 24.4 micromol/kg, IG measured after 6 hrs by LC-MS/MS analysis
# Format: ADME, tissue-based
# testContext: in vivo, po, dose 24.4 µmol/kg
assayEndpoint: Ct (nmol/kg)
Lab book: enter the figure in nmol/kg, no units written.

Solved cases below.
1. C[C@@]1(O)CC[C@H]2[C@H](CC[C@@H]3[C@@H]2CC[C@]2(C)[C@@H](C(=O)Cn4cnn(-c5ccnc(F)c5)c4=O)CC[C@@H]32)C1 = 764
2. C[C@@]1(O)CC[C@H]2[C@H](CC[C@@H]3[C@@H]2CC[C@]2(C)[C@@H](C(=O)Cn4cc(C#N)cn4)CC[C@@H]32)C1 [ZURANOLONE] = 193
3. C[C@@]1(O)CC[C@H]2[C@H](CC[C@@H]3[C@@H]2CC[C@]2(C)[C@@H](C(=O)Cn4cnn(-c5cccc(F)c5)c4=O)CC[C@@H]32)C1 = 792

--- query ---
What Ct value was documented for this molecule, C[C@@]1(O)CC[C@H]2[C@H](CC[C@@H]3[C@@H]2CC[C@]2(C)[C@@H](C(=O)Cn4cnn(-c5cc(F)nc(F)c5)c4=O)CC[C@@H]32)C1 ? 2339

====

# targetSystem: Gamma-aminobutyric acid receptor subunit alpha-4/beta3/delta (Homo sapiens) (UniProt P28472+P48169+O14764)
# experimentalProtocol: Positive allosteric modulation of extrasynaptic alpha4beta3delta GABA-A receptor (unknown origin) transfected in CHO cells assessed as potentiation of GABA-induced peak current amplitude by measuring maximal efficacy at 0.01 to 10 uM at -80 mV holding potential preincubated for 30 secs followed by GABA stimulation for 2 secs by manual patch assay relative to control
# Type: cell-based
# testContext: filed as positive allosteric modulator, dose 0.01-10 µM, time 32.0 sec
assayEndpoint: Emax
# do not omit the unit; it follows the number

Field: example entries. Status: answers known.
1) C[C@@]1(O)CC[C@H]2[C@H](CC[C@@H]3[C@@H]2CC[C@]2(C)[C@@H](C(=O)Cn4nnn(-c5cccc(F)c5)c4=O)CC[C@@H]32)C1 = 602%
2) C[C@@]1(O)CC[C@H]2[C@H](CC[C@@H]3[C@@H]2CC[C@]2(C)[C@@H](C(=O)Cn4ncn(-c5cccc(F)c5)c4=O)CC[C@@H]32)C1 = 334%
3) C[C@@]1(O)CC[C@H]2[C@H](CC[C@@H]3[C@@H]2CC[C@]2(C)[C@@H](C(=O)Cn4cnn(-c5ccccc5)c4=O)CC[C@@H]32)C1 = 430%
4) C[C@@]1(O)CC[C@H]2[C@H](CC[C@@H]3[C@@H]2CC[C@]2(C)[C@@H](C(=O)Cn4cnn(-c5cccc(C#N)c5)c4=O)CC[C@@H]32)C1 = 683%
5) C[C@@]1(O)CC[C@H]2[C@H](CC[C@@H]3[C@@H]2CC[C@]2(C)[C@@H](C(=O)Cn4cnn(-c5ccc(F)cc5)c4=O)CC[C@@H]32)C1 = 410%

Item C[C@@]1(O)CC[C@H]2[C@H](CC[C@@H]3[C@@H]2CC[C@]2(C)[C@@H](C(=O)Cn4cnn(-c5ccc6c(c5)OCO6)c4=O)CC[C@@H]32)C1 has what recorded Emax? 1200%

Do the same for C[C@@]1(O)CC[C@H]2[C@H](CC[C@@H]3[C@@H]2CC[C@]2(C)[C@@H](C(=O)Cn4cnn(-c5cc(F)ccc5F)c4=O)CC[C@@H]32)C1 please 743%

====

# experimentalProtocol: Half life in male Sprague-Dawley rat at 6.1 micromol/kg, iv administered as single dose and measured upto 24 hrs by LC-MS/MS analysis
# Assay type: ADME, organism-based
# testContext: in vivo, dose 6.1 µmol/kg
Overview of recorded half-life for various compounds
Please respond with the number in h and leave the unit unwritten.

Quick check: half-life of C[C@@]1(O)CC[C@H]2[C@H](CC[C@@H]3[C@@H]2CC[C@]2(C)[C@@H](C(=O)Cn4cnn(-c5cc(F)nc(F)c5)c4=O)CC[C@@H]32)C1 ? 5.2

Same thing, different compound: C[C@@]1(O)CC[C@H]2[C@H](CC[C@@H]3[C@@H]2CC[C@]2(C)[C@@H](C(=O)Cn4cc(C#N)cn4)CC[C@@H]32)C1 2.45

====

# targetSystem: GABA-A receptor; alpha-1/beta-2/gamma-2 (Homo sapiens, UniProt P14867+P18507+P47870)
# Sequence (P14867 whole entry): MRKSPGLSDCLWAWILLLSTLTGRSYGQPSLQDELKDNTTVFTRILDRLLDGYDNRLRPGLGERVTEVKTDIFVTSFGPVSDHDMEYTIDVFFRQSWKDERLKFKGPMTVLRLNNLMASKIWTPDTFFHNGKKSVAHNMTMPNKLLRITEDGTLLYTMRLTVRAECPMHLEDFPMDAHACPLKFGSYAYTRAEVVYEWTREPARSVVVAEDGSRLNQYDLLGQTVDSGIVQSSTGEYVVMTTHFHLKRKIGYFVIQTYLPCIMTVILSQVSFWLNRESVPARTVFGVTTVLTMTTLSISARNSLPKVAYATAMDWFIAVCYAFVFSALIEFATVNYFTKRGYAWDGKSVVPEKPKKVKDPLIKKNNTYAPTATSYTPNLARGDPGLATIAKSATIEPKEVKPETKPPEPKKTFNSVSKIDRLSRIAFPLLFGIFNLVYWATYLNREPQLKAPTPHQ
# Sequence (P47870 whole entry): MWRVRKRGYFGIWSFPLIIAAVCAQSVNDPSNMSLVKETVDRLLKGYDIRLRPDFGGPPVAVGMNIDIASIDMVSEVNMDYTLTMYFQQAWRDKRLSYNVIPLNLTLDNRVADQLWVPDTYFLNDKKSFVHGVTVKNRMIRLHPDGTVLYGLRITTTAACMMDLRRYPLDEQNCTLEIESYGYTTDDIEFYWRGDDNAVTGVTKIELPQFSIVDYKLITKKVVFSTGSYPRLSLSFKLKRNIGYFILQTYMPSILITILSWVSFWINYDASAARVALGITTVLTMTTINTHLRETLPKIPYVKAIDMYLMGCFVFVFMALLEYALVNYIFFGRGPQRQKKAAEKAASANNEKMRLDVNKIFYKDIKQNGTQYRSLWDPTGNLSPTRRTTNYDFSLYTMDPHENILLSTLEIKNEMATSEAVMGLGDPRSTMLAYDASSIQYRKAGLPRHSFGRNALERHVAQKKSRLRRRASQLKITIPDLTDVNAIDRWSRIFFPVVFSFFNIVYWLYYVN
# Sequence (P18507 whole entry): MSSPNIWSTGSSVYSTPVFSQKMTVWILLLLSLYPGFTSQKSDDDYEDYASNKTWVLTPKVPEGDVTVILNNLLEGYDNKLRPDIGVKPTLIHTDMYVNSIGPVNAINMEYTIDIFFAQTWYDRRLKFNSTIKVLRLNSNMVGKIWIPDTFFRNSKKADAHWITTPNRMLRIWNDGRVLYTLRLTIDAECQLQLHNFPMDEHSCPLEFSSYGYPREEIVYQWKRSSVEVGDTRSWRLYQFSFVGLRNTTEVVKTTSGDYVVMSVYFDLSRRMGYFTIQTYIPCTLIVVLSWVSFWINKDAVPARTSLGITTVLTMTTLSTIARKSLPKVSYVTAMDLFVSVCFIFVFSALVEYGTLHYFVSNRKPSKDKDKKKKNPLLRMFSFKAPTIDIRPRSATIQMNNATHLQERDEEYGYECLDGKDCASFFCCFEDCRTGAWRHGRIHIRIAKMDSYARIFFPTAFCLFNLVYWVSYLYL
# experimentalProtocol: Positive allosteric modulation of synaptic alpha1beta2gamma2 GABA-A receptor (unknown origin) transfected in LTK cells assessed as potentiation of GABA-induced peak current amplitude at -80 mV holding potential preincubated for 30 secs followed by GABA stimulation for 2 secs by Q-patch assay
assayEndpoint: EC50 (nM)
All answers are understood in nM, so give the number only.

Recorded results for 3 molecules are shown here.
1. C[C@@]1(O)CC[C@H]2[C@H](CC[C@@H]3[C@@H]2CC[C@]2(C)[C@@H](C(=O)Cn4cnn(-c5cc(F)ccn5)c4=O)CC[C@@H]32)C1 = 340
2. C[C@@]1(O)CC[C@H]2[C@H](CC[C@@H]3[C@@H]2CC[C@]2(C)[C@@H](C(=O)Cn4cnn(-c5ccc(F)cc5)c4=O)CC[C@@H]32)C1 = 220
3. C[C@@]1(O)CC[C@H]2[C@H](CC[C@@H]3[C@@H]2CC[C@]2(C)[C@@H](C(=O)Cn4cnn(C5CCCCC5)c4=O)CC[C@@H]32)C1 = 585

Reported EC50, molecule CC(C)(C)n1ncn(CC(=O)[C@H]2CC[C@H]3[C@@H]4CC[C@@H]5C[C@](C)(O)CC[C@@H]5[C@H]4CC[C@]23C)c1=O : ____ 310

Would you mind doing C[C@@]1(O)CC[C@H]2[C@H](CC[C@@H]3[C@@H]2CC[C@]2(C)[C@@H](C(=O)Cn4cnn(-c5cncc(F)c5)c4=O)CC[C@@H]32)C1 as well? 145

Consider next the molecule C[C@@]1(O)CC[C@H]2[C@H](CC[C@@H]3[C@@H]2CC[C@]2(C)[C@@H](C(=O)Cn4ncn(-c5cccc(F)c5)c4=O)CC[C@@H]32)C1 in the same way. 371

Also, C[C@@]1(O)CC[C@H]2[C@H](CC[C@@H]3[C@@H]2CC[C@]2(C)[C@@H](C(=O)Cn4cnn(CC(F)(F)F)c4=O)CC[C@@H]32)C1 please. 548

One more molecule: C[C@@]1(O)CC[C@H]2[C@H](CC[C@@H]3[C@@H]2CC[C@]2(C)[C@@H](C(=O)Cn4cnn(-c5cccc(N)c5)c4=O)CC[C@@H]32)C1 349

Also C[C@@]1(O)CC[C@H]2[C@H](CC[C@@H]3[C@@H]2CC[C@]2(C)[C@@H](C(=O)Cn4cnn(-c5cc(F)ccc5F)c4=O)CC[C@@H]32)C1 , if possible. 340

Can you handle C[C@@]1(O)CC[C@H]2[C@H](CC[C@@H]3[C@@H]2CC[C@]2(C)[C@@H](C(=O)Cn4cnn(-c5ccnc(F)c5)c4=O)CC[C@@H]32)C1 next? 109

Another molecule to look at: Cn1ncn(CC(=O)[C@H]2CC[C@H]3[C@@H]4CC[C@@H]5C[C@](C)(O)CC[C@@H]5[C@H]4CC[C@]23C)c1=O 444

Query COc1cccc(-n2ncn(CC(=O)[C@H]3CC[C@H]4[C@@H]5CC[C@@H]6C[C@](C)(O)CC[C@@H]6[C@H]5CC[C@]34C)c2=O)c1 next 26
